Field: IC50. Provide a value for each of the molecules that follow.
# Test system: HCT116
# procedure-summary: cells
# Format: cell-based
# condition-summary: assay number 25; basal; read-out: Basal_Viability ATP HCT116 summarized IC50

List the reported IC50 of each molecule below.
1. COP(=S)(OC)Oc1ccc(Sc2ccc(OP(=S)(OC)OC)cc2)cc1 [NCGC00163910-05]
2. CC(=O)NC(=O)c1ccccc1O [NCGC00160362-02]

RESULT:
1: > 20 µM; 2: > 20 µM

---

# measurement-target: hKDR (Homo sapiens, UniProt P35968)
# Construct: purchased Cerep (LANCE kinase assay platform, contract assay)
# Sequence (P35968 20-1356): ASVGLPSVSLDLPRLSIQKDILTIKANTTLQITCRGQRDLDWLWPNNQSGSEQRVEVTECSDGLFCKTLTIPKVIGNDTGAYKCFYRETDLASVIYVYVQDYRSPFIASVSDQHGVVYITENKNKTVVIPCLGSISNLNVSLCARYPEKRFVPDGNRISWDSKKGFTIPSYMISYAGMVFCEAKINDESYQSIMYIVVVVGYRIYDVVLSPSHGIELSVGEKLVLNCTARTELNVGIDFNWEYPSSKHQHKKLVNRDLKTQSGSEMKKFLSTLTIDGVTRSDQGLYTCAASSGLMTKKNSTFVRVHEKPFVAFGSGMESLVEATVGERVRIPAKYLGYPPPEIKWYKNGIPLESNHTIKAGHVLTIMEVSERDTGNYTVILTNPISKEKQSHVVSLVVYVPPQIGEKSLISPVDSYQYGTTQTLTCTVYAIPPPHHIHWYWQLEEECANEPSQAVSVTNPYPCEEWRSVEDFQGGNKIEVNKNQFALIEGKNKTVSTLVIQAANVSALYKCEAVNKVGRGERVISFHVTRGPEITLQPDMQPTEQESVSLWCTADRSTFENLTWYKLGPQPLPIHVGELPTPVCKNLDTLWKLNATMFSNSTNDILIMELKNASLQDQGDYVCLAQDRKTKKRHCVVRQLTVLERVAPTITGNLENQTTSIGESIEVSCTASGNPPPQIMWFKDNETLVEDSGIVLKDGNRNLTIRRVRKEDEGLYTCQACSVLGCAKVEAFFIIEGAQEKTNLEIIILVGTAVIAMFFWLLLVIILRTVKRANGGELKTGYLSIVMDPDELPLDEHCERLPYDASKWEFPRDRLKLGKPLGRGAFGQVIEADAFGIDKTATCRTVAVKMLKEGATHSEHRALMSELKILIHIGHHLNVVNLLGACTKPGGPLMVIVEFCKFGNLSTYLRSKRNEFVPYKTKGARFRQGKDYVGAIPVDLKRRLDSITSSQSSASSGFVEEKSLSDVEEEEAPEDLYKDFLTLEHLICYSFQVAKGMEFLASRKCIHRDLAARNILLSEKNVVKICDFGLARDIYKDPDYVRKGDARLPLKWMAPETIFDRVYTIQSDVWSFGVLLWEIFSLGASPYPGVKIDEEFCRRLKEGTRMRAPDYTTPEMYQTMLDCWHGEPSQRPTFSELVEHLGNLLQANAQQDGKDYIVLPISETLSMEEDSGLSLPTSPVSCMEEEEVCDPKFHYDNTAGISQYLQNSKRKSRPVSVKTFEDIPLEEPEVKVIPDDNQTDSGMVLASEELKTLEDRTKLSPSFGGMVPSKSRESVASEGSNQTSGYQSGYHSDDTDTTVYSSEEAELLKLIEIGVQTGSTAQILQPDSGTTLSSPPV
# procedure-summary: Cerep LANCE kinase assay hKDR (S1 assay 32)
# Type: biochemical
# condition-summary: kinase assay; read-out: KDR
Field: IC50. Provide a value for each of the molecules that follow.

The cases that follow already have their IC50 on record.
CC(=O)[C@]1(O)Cc2c(O)c3c(c(O)c2[C@@H](O[C@H]2C[C@H](N)[C@H](O)[C@H](C)O2)C1)C(=O)c1ccccc1C3=O ... > 20 µM
O=C1c2c(O)ccc(O)c2C(=O)c2c(NCCNCCO)ccc(NCCNCCO)c21 ... > 20 µM

List the reported IC50 of each molecule below.
1. Cc1cc(O)c2c3c4c(cc(O)c13)C(C)(C)C(=O)c1c(O)cc(O)c(c1-4)C2=O
2. COc1ccc(-c2ccc3cc(C(=O)O)ccc3c2)cc1C12CC3CC(CC(C3)C1)C2
3. Sc1ncnc2nc[nH]c12
4. CCCOc1ccc2nc(NC(=O)OC)[nH]c2c1
5. COC(=O)Nc1nc2ccc(Sc3ccccc3)cc2[nH]1
6. CCN(CC)CCNc1ccc(CO)c2sc3ccccc3c(=O)c12
7. COc1cc(-c2ccc(=O)[nH]n2)ccc1OC(F)F
8. O=c1c(-c2ccccc2)c1-c1ccccc1

RESULT:
1: > 20 µM; 2: 7.1 µM; 3: > 20 µM; 4: > 20 µM; 5: > 20 µM; 6: > 20 µM; 7: > 20 µM; 8: > 20 µM

List the reported IC50 of each molecule below.
1. COC(=O)Nc1nc2ccc(C(=O)c3cccs3)cc2[nH]1
2. O=c1[nH]c(=O)n([C@H]2C[C@H](O)[C@@H](CO)O2)cc1F
3. O=c1[nH]c(=O)n([C@H]2C[C@H](O)[C@@H](CO)O2)cc1C(F)(F)F
4. COC(=O)c1nc(Cl)c(Cl)nc1N
5. C[C@@]12C(=O)OC(=O)[C@]1(C)[C@H]1CC[C@@H]2O1
6. COc1c(C)c2c(c(O)c1C/C=C(\C)CCC(=O)O)C(=O)OC2 [Mycophenolate]

RESULT:
1. 6.61 µM
2. > 20 µM
3. > 20 µM
4. > 20 µM
5. > 20 µM
6. > 20 µM

List the reported IC50 of each molecule below.
1. COCc1c(C(C)C)nc(C(C)C)c(/C=C/[C@@H](O)C[C@@H](O)CC(=O)O)c1-c1ccc(F)cc1 [cerivastatin, reference compound]
2. COC(=O)Nc1nc2ccc(C(=O)C3CC3)cc2[nH]1

RESULT:
["> 20 µM", "15.1 µM"]
